- ASSAY_INFO: reducers of endogenous Her2 protein level, primary screen, SKBR3 breast tumor cells, AlphaScreen, ATP viability (AID 461);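 note: percent of carrier control wells set as 100% viability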
- REPORTED_CONDITIONS: 18-24 h, measured here: SKBR3 viability, ATP luminescence, at 10 µM
VALUE_TYPE: viability (%)
Respond numerically; units are % and should not be typed.

Reference set (5 entries):
| MOLECULE | DISPLAY_UNIT | QUANTITATIVE_RESULT |
| --- | --- | --- |
| Cc1nc2ccccc2c(=O)n1NC(=O)c1c(O)c2c(n(CC(C)C)c1=O)CCCC2 | % | 88.5 |
| CC1CCCN(c2ccc(C(=O)NCc3cccs3)cn2)C1 (configuration not stated) | % | 98.5 |
| O=C(CN(Cc1ccco1)C(=O)c1cc(=O)[nH]c2ccccc12)Nc1ccccc1Br | % | 97 |
| CCCC(=O)Nc1ccc(NC(=O)c2ccccc2OC)cn1 | % | 94.5 |
| CCCc1cc(C(=O)Nc2ccccc2C(=O)OC)no1 | % | 89.5 |

Can you look up the measured viability of `CN1CCN(C(=O)c2cnn3c(C(F)F)cc(C4CC4)nc23)CC1` for me? 95

Entry CCOC(=O)C1=C(C)NC(=O)C(C#N)C1c1ccco1 (configuration not stated) has what viability? 104

Request the reported viability associated with Clc1ccc(C2Nc3ccccc3-n3cccc32)cc1 (configuration not stated) 92

Field request: viability | item: CC1=C(C(=O)OC(C)C)C(C2CC=CCC2)NC(=O)N1 (configuration not stated) 95.5

Request the reported viability associated with `COC(=O)Cn1c(C)nc2c(sc3nc(C)cc(C)c32)c1=O` 110

Entry `O=c1c(-c2ccc(F)cc2)coc2c3c(ccc12)OCCO3` has what viability? 100

So what's the measured viability for this one? `CCOC(=O)c1cc2ccc(OC)c(OC)c2c(=O)s1` 98.5

Which value of viability has been reported for `O=C(Nc1ccc(F)cc1)N(Cc1ccco1)Cc1cc2cc3c(cc2[nH]c1=O)OCO3` in the records? 86.5

Need viability of `Cc1coc(NC(=O)CSc2nc(-c3ccncc3)cc(C(F)(F)F)c2C#N)n1` , thanks. 106

Please look up its viability: CCOC(=O)C1CCCN(c2c(Nc3ccc(C)c(C)c3)c(=O)c2=O)C1 (configuration not stated) 84

# query: viability of entry CN1C(=O)C(O)(CC(=O)c2ccc3c(c2)OCO3)c2ccccc21 (configuration not stated) 99.5

For the molecule shown here, `CC(C)(C)OC(=O)N1CC=C2C(C#N)=C(N)C(C#N)(C#N)[C@H](c3cccnc3)[C@H]2C1` , give the reported viability. 88

====

- ASSAY_INFO: reversal of MRP1-mediated doxorubicin resistance, pilot screen, H69AR cells, doxorubicin co-treatment (AID 601)
- REPORTED_CONDITIONS: H69AR cells, CellTiter-Glo, 72 h; compound alone cytotoxicity; at 10 µM
Each item that follows carries a reported viability.
Reply numerically in %, unit not repeated.

| MOLECULE | VALUE_TYPE | QUANTITATIVE_RESULT |
| --- | --- | --- |
| CCC1CCCCN1c1nc(-c2ccncc2)nc2ccccc12 (centres undefined) | viability | 14.5 |
| CN(C)/C=C1\N=C(c2ccc(Cl)cc2Cl)OC1=O | viability | 95.9 |
| CCOc1cc(S(=O)(=O)NCc2ccc3c(c2)OCO3)ccc1F | viability | 97.9 |

Any idea what its viability is? The molecule is `CN1CCN(c2nc3c(c(=O)[nH]c(=O)n3C)n2CCOc2ccccc2)CC1` 92.2

Would you kindly share the measured viability for Cc1cc(C)c2cc(CN(CC3CCCO3)C(=O)NC3CCCCC3)c(=O)[nH]c2c1 (centres undefined) ? 73.4

Returns the measured viability for the input molecule. Input: COc1cccc(NC(=O)C2C3C=CC4(O3)C2C(=O)N(C(C)C)C4C(=O)NC2CCCCC2C)c1 (centres undefined) 96.9

Data request, read-out viability, for CC[C@]1(O)CC2CN(CCc3c([nH]c4ccccc34)[C@@](C(=O)OC)(c3cc4c(cc3OC)N(C=O)[C@H]3[C@@](O)(C(=O)OC)[C@H](OC(C)=O)[C@]5(CC)C=CCN6CC[C@]43[C@@H]65)C2)C1 (some centres undefined) 26.5

Given the entry `O=C(Nc1ccc2c(c1)OCO2)N1CCN(c2ncccn2)CC1` , report its measured viability. 85.5

Which viability value is on record for `CCOc1ccc(S(=O)(=O)N(C)C)cc1-c1nc2c(C(C)(C)C)nn(C)c2c(=O)[nH]1` ? 78.9
